target: Kras and SOS1 (biotin-tagged human Kras loaded with GDP, His-tagged human SOS1) (Homo sapiens, UniProt P01116, G12D); construct: made in house; host or cells: E. coli (stated for Kras only); assay: Protein-protein interaction inhibition between Kras and SOS1 (KrasGl2D-SOS PPI) using AlphaScreen; type: binding; details: AlphaScreen; biotin-tagged human Kras loaded with GDP, His-tagged human SOS1; read-out: KRAS G12D-SOS PPI IC50
Sequence (P01116 1-188 isoform P01116-2 G12D): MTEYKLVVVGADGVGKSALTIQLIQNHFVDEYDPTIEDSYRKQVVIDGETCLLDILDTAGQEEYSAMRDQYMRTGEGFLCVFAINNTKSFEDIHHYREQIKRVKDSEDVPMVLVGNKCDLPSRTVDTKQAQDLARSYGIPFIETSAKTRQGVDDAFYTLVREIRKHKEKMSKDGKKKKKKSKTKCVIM
pIC50: −log10 of the molar value. Positions of bridges follow the written chain, without caps; N, C: chain ends. Non-standard residues stand in square brackets, D forms with d. Residues, ends and D or L forms follow the SMILES beside them. *: point of attachment. hPhe(3,5-F2-4-CF3) = N[C@@H](CCc1cc(F)c(C(F)(F)F)c(F)c1)C(=O)O; hPhe(3-Cl-4-CF3) = N[C@@H](CCc1ccc(C(F)(F)F)c(Cl)c1)C(=O)O; NMePhe(4-CF3) = CN[C@@H](Cc1ccc(C(F)(F)F)cc1)C(=O)O; Pro(cis-4-Ph) = O=C(O)[C@@H]1C[C@H](c2ccccc2)CN1; 3Oxa8azabicyclo(3.2.1)octane = C1CC2COCC1N2*; NEtPhe(4-Me) = CCN[C@@H](Cc1ccc(C)cc1)C(=O)O; hNle(7,7-F2) = N[C@@H](CCCCC(F)F)C(=O)O; NMeGly(cPent) = CN[C@H](C(=O)O)C1CCCC1; NMeGly(cBu) = CN[C@H](C(=O)O)C1CCC1; NMeCha = CN[C@@H](CC1CCCCC1)C(=O)O; Hyp = O=C(O)[C@@H]1C[C@@H](O)CN1; NMeChg = CN[C@H](C(=O)O)C1CCCCC1; NMeI = CC[C@H](C)[C@H](NC)C(=O)O; NMeD = CN[C@@H](CC(=O)O)C(=O)O; NMeL = CN[C@@H](CC(C)C)C(=O)O; dNMeAbu = CC[C@@H](NC)C(=O)O; NMeNva = CCC[C@H](NC)C(=O)O; NMeS = CN[C@@H](CO)C(=O)O; Morpholide = C1CN(*)CCO1; NMeA = CN[C@@H](C)C(=O)O; Piperidide = C1CCN(*)CC1; Pyrrolidide = C1CCN(*)C1; Ac5c = NC1(C(=O)O)CCCC1; Aze = O=C(O)[C@@H]1CCN1; Sar = CNCC(=O)O; Propyl = CCC*

Molecule | pIC50
CC[C@@H]1C(=O)NC2(CCCC2)C(=O)N(C)[C@@H](C2CCCC2)C(=O)N(C)[C@H](C(=O)N2CCCCC2)CC(=O)N(C)[C@@H](CC(C)C)C(=O)N[C@@H]([C@@H](C)CC)C(=O)N(C)[C@@H](C)C(=O)N2CC[C@H]2C(=O)N(C)[C@@H](CC2CCCCC2)C(=O)N(C)CC(=O)N[C@@H](CCc2ccc(C(F)(F)F)c(Cl)c2)C(=O)N1C [Compound 1441] ([NMeL]I[NMeA][Aze][NMeCha][Sar][hPhe(3-Cl-4-CF3)][dNMeAbu][Ac5c][NMeGly(cPent)][NMeD]-Piperidide; lactam N-11) | 8.19
CC[C@H](C)[C@@H]1NC(=O)[C@H](CC(C)C)N(C)C(=O)C[C@@H](C(=O)N2CCCCC2)N(C)C(=O)[C@H](C2CCCCC2)N(C)C(=O)C2(CCCC2)NC(=O)[C@@H]2C[C@H](c3ccccc3)CN2C(=O)[C@H](CCc2ccc(C(F)(F)F)c(Cl)c2)NC(=O)CN(C)C(=O)[C@H](CC2CCCCC2)N(C)C(=O)[C@@H]2CCN2C(=O)[C@H](C)N(C)C1=O [Compound 1053] ([NMeL]I[NMeA][Aze][NMeCha][Sar][hPhe(3-Cl-4-CF3)][Pro(cis-4-Ph)][Ac5c][NMeChg][NMeD]-Piperidide; lactam N-11) | 8.17
CC[C@H](C)[C@@H]1NC(=O)[C@H](CC(C)C)N(C)C(=O)C[C@@H](C(=O)N2C3CCC2COC3)N(C)C(=O)[C@H](C2CCCC2)N(C)C(=O)C2(CCCC2)NC(=O)[C@@H]2CCCN2C(=O)[C@H](CCc2cc(F)c(C(F)(F)F)c(F)c2)NC(=O)CN(C)C(=O)[C@H](Cc2ccc(C)cc2)N(CC)C(=O)[C@@H]2CCN2C(=O)[C@H](C)N(C)C1=O [Compound 1215] ([NMeL]I[NMeA][Aze][NEtPhe(4-Me)][Sar][hPhe(3,5-F2-4-CF3)]P[Ac5c][NMeGly(cPent)][NMeD]-{3Oxa8azabicyclo(3.2.1)octane}; lactam N-11) | 8.74
CC(C)C[C@H]1C(=O)N[C@@H](CCCCC(F)F)C(=O)N(C)CC(=O)N(C)CC(=O)N(C)[C@@H](CC2CCCCC2)C(=O)N(C)CC(=O)N[C@@H](CCc2ccc(C(F)(F)F)c(Cl)c2)C(=O)N2CCC[C@H]2C(=O)NC2(CCCC2)C(=O)N(C)[C@@H](C2CCCCC2)C(=O)N(C)[C@H](C(=O)N2CCCCC2)CC(=O)N1C [Compound 92] ([NMeL][hNle(7,7-F2)][Sar][Sar][NMeCha][Sar][hPhe(3-Cl-4-CF3)]P[Ac5c][NMeChg][NMeD]-Piperidide; lactam N-11) | 8.26
CCO[C@@H]1C[C@H]2C(=O)NC3(CCCC3)C(=O)N(C)[C@@H]([C@@H](C)CC)C(=O)N(C)[C@H](C(=O)N3CCOCC3)CC(=O)N(C)[C@@H](CC(C)C)C(=O)N[C@@H]([C@@H](C)CC)C(=O)N(C)[C@@H](C)C(=O)N3CC[C@H]3C(=O)N(C)[C@@H](Cc3ccc(C(F)(F)F)cc3)C(=O)N(C)CC(=O)N[C@@H](CCc3ccc(C(F)(F)F)c(Cl)c3)C(=O)N2C1 [Compound 1330] ([NMeL]I[NMeA][Aze][NMePhe(4-CF3)][Sar][hPhe(3-Cl-4-CF3)][Hyp](Et)[Ac5c][NMeI][NMeD]-Morpholide; lactam N-11) | 9.21
CCCOC[C@H]1C(=O)N(C)CC(=O)N[C@@H](CCc2ccc(C(F)(F)F)c(Cl)c2)C(=O)N2CCC[C@H]2C(=O)NC2(CCCC2)C(=O)N(C)[C@@H](C2CCCCC2)C(=O)N(C)[C@H](C(=O)N2C3CCC2COC3)CC(=O)N(C)[C@@H](C2CCC2)C(=O)N[C@@H]([C@@H](C)CC)C(=O)N(C)CC(=O)N(C)CC(=O)N1C [Compound 140] ([NMeGly(cBu)]I[Sar][Sar][NMeS](Propyl)[Sar][hPhe(3-Cl-4-CF3)]P[Ac5c][NMeChg][NMeD]-{3Oxa8azabicyclo(3.2.1)octane}; lactam N-11) | 9.09
CCC[C@H]1C(=O)N[C@@H]([C@@H](C)CC)C(=O)N(C)CC(=O)N(C)CC(=O)N(C)[C@@H](CC2CCCCC2)C(=O)N(C)CC(=O)N[C@@H](CCc2cc(F)c(C(F)(F)F)c(F)c2)C(=O)N2CCC[C@H]2C(=O)NC2(CCCC2)C(=O)N(C)[C@@H](C2CCCCC2)C(=O)N(C)[C@H](C(=O)N2CCCC2)CC(=O)N1C [Compound 1253] ([NMeNva]I[Sar][Sar][NMeCha][Sar][hPhe(3,5-F2-4-CF3)]P[Ac5c][NMeChg][NMeD]-Pyrrolidide; lactam N-11) | 9.09
CCC[C@H]1C(=O)NC2(CCCC2)C(=O)N(C)[C@@H](C2CCCCC2)C(=O)N(C)[C@H](C(=O)N2CCCCC2)CC(=O)N(C)[C@@H](CC(C)C)C(=O)N[C@@H]([C@@H](C)CC)C(=O)N(C)CC(=O)N2CC[C@H]2C(=O)N(C)[C@@H](CC2CCCCC2)C(=O)N(C)CC(=O)N[C@@H](CCc2ccc(C(F)(F)F)c(Cl)c2)C(=O)N1C [Compound 478] ([NMeL]I[Sar][Aze][NMeCha][Sar][hPhe(3-Cl-4-CF3)][NMeNva][Ac5c][NMeChg][NMeD]-Piperidide; lactam N-11) | 8.52

###

Measured pIC50 values are reported for all entries that follow.
target: Kras and SOS1 (biotin-tagged human Kras loaded with GDP, His-tagged human SOS1) (Homo sapiens, UniProt P01116, G12D); construct: made in house; host or cells: E. coli (stated for Kras only); assay: Protein-protein interaction inhibition between Kras and SOS1 (KrasGl2D-SOS PPI) using AlphaScreen; assay type: binding; details: AlphaScreen; biotin-tagged human Kras loaded with GDP, His-tagged human SOS1; read-out: KRAS G12D-SOS PPI IC50
pIC50: −log10 of the molar value. Starred links: 1 amine or outer side, 2 acyl side, 3 side chain; linkers in the order of their positions; H or OH if unused. Positions of bridges follow the written chain, without caps; N, C: chain ends. Non-standard residues stand in square brackets, D forms with d. Residues, ends and D or L forms follow the SMILES beside them. hPhe(3,5-F2-4-CF3) = N[C@@H](CCc1cc(F)c(C(F)(F)F)c(F)c1)C(=O)O; hPhe(3-Cl-4-CF3) = N[C@@H](CCc1ccc(C(F)(F)F)c(Cl)c1)C(=O)O; NMePhe(3-CF3) = CN[C@@H](Cc1cccc(C(F)(F)F)c1)C(=O)O; NMePhe(4-Me) = CN[C@@H](Cc1ccc(C)cc1)C(=O)O; NMePhe(4-F) = CN[C@@H](Cc1ccc(F)cc1)C(=O)O; NMedβ3hAla = C[C@H](CC(=O)[*:2])N(C)[*:1]; NMeI = CC[C@H](C)[C@H](NC)C(=O)O; NMeD = CN[C@@H](CC(=O)O)C(=O)O; NMeL = CN[C@@H](CC(C)C)C(=O)O; NMeV = CN[C@H](C(=O)O)C(C)C; NMeA = CN[C@@H](C)C(=O)O; Ac5c = NC1(C(=O)O)CCCC1; Aze = O=C(O)[C@@H]1CCN1; Sar = CNCC(=O)O

Molecule | pIC50
CC[C@H](C)[C@@H]1NC(=O)[C@H](CC(C)C)N(C)C(=O)C[C@@H](C)N(C)C(=O)[C@H](C(C)C)N(C)C(=O)C2(CCCC2)NC(=O)[C@@H]2CCCN2C(=O)[C@H](CCc2ccc(C(F)(F)F)c(Cl)c2)NC(=O)CN(C)C(=O)[C@H](Cc2cccc(C(F)(F)F)c2)N(C)C(=O)CN(C)C(=O)CN(C)C1=O [Compound 1572] (cyclo([Ac5c][NMeV][NMedβ3hAla][NMeL]I[Sar][Sar][NMePhe(3-CF3)][Sar][hPhe(3-Cl-4-CF3)]P)) | 8.01
CC[C@H](C)[C@@H]1NC(=O)[C@H](CC(C)C)N(C)C(=O)C[C@@H](C(=O)N(C)C)N(C)C(=O)[C@H]([C@@H](C)CC)N(C)C(=O)C2(CCCC2)NC(=O)[C@H](Cc2ccc(F)cc2)N(C)C(=O)[C@H](CCc2cc(F)c(C(F)(F)F)c(F)c2)NC(=O)CN(C)C(=O)[C@H](Cc2ccc(C)cc2)N(C)C(=O)[C@@H]2CCN2C(=O)[C@H](C)N(C)C1=O [Compound 1952] ([NMeL]I[NMeA][Aze][NMePhe(4-Me)][Sar][hPhe(3,5-F2-4-CF3)][NMePhe(4-F)][Ac5c][NMeI][NMeD]-NMe2; lactam N-11) | 8.09
